B1: Osa-1-4 twister ribozyme (parent)
chain: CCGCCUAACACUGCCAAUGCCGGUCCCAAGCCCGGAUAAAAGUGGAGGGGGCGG

- Variants of: B1
- test description: self-cleavage, relative activity (ratio to wild type); higher = more cleavage; co-transcriptional
// classify(record): look up self-cleavage in ranges class 1 (below 0.09), class 2 (0.09 to below 0.4), class 3 (0.4 or more)

{"primary sequence": "CCGCCUAACACUGCCAAUGCCGGUCCUAAGCCCGGAUAAAAGUGGAGGGGGCUG [C27U G53U]", "category label": "class 1"}
{"primary sequence": "CCGCCUAACACUGCCAAUGCCGGUCCCAAGCCCGGACAAAAGUGUAGGGGGCGG [G45U U37C]", "category label": "class 2"}
{"primary sequence": "CCGCCUAACACUGCCAAUGCCGGUACCAAGCCCGGAUUAAAGUGGAGGGGGCGG [A38U C25A]", "category label": "class 1"}

Could you now consider this next variant?
**Query** GET /class?item= CCGCCUAACACUGCGAAUGCCGGUCCCAAGCCCGGAUAAAAGGGGAGGGGGCGG [C15G U43G]
**Result** class 2
